Data provenance: patent US20240050428A1

Listing: pIC50 of selected compounds
- Test system: MV4;11 cells
- measurementProtocol: Cell viability assay (CellTiter-Glo) in MV4;11 cells, alone or with gilteritinib
- Format: cell-based
- experimentalSetup: Homo sapiens, MV4-11, 72 h, MV4;11 cells, compound with gilteritinib 10 nM, three days, CellTiter-Glo; read-out: MV4; 11 IC50 gilteritinib
pIC50: −log10 of the molar value.

Consider the reported pIC50 for these compounds:
1) CN1CCN(c2ccnc(-c3cn([C@H]4C[C@H](CNc5ccc6c(c5)C(=O)N(C5CCC(=O)NC5=O)C6=O)C4)nc3C3CC3)c2)CC1 (stereo partly drawn) [GS-608]; < 6.00
2) O=C1CCC(N2C(=O)c3ccc(CNC4CC(n5cc(-c6cnc7ccccc7n6)c(C6CC6)n5)C4)cc3C2=O)C(=O)N1 (stereo not drawn) [GS-461]; < 6.00

Quick one: pIC50 of Cc1cccc(-c2cn([C@H]3C[C@H](CNc4ccc5c(c4)C(=O)N(C4CCC(=O)NC4=O)C5=O)C3)nc2C(F)(F)F)n1 (stereo partly drawn) [GS-439] ?
7.00 to 8.00

Quick one: pIC50 of O=C1CCC(N2C(=O)c3ccc(NCCC[C@H]4C[C@H](n5cc(-c6nccc7[nH]ncc67)c(C6CC6)n5)C4)cc3C2=O)C(=O)N1 (stereo partly drawn) [GS-626] ?
7.00 to 8.00

Quick one: pIC50 of CN1CCN(c2ccc3ncc(-c4cn([C@H]5C[C@H](CNc6ccc7c(c6)C(=O)N(C6CCC(=O)NC6=O)C7=O)C5)nc4C4CC4)nc3c2)CC1 (stereo partly drawn) [GS-463] ?
> 8.00

Quick one: pIC50 of O=C1CCC(N2C(=O)c3ccc(NCCC[C@H]4C[C@H](n5cc(-c6nccc7cnccc67)c(C6CC6)n5)C4)cc3C2=O)C(=O)N1 (stereo partly drawn) [GS-628] ?
7.00 to 8.00

Quick one: pIC50 of O=C1CCC(N2C(=O)c3ccc(NCCC[C@H]4C[C@H](n5cc(-c6cnc7ccccc7n6)c(C6CC6)n5)C4)cc3C2=O)C(=O)N1 (stereo partly drawn) [GS-568] ?
> 8.00

Quick one: pIC50 of O=C1CCC(N2C(=O)c3ccc(NC[C@H]4C[C@H](n5cc(-c6ccccn6)c(C6CC6)n5)C4)cc3C2=O)C(=O)N1 (stereo partly drawn) [GS-595] ?
7.00 to 8.00

Quick one: pIC50 of O=C1CCC(N2C(=O)c3ccc(NCCCCCCn4cc(-c5cnc6ccccc6n5)c(C(F)(F)F)n4)cc3C2=O)C(=O)N1 (stereo not drawn) [GS-550] ?
7.00 to 8.00

* * *

- System: MOLM-13 cells
- measurementProtocol: Cell viability assay (CellTiter-Glo) in MOLM-13 cells, alone or with gilteritinib
- Type: cell-based
- experimentalSetup: Homo sapiens, MOLM-13, 72 h, MOLM-13 cells, with gilteritinib 20 nM, three days, CellTiter-Glo; read-out: MOLM-13 IC50 gilteritinib
pIC50: −log10 of the molar value.
Listing: pIC50 of selected compounds

Consider the reported pIC50 for these compounds:
1) COc1cccc2ncc(-c3cnn(CCCCCCNc4ccc5c(c4)C(=O)N(C4CCC(=O)NC4=O)C5=O)c3)nc12 (stereo not drawn); 6.00 to 7.00
2) COc1ccc(-c2cn([C@H]3C[C@H](CNc4ccc5c(c4)C(=O)N(C4CCC(=O)NC4=O)C5=O)C3)nc2C2CC2)nc1 (stereo partly drawn); 7.00 to 8.00
3) O=C(CN1CCC(n2cc(-c3cnc4ccccc4n3)cn2)CC1)NCCCNc1ccc2c(c1)C(=O)N(C1CCC(=O)NC1=O)C2=O (stereo not drawn); 6.00 to 7.00

Quick one: pIC50 of O=C(CC1CC1N1CCC(n2cc(-c3cnc4ccccc4n3)cn2)CC1)NCc1ccc2c(c1)CN(C1CCC(=O)NC1=O)C2=O (stereo not drawn) ?
7.00 to 8.00

Quick one: pIC50 of O=C1CCC(N2Cc3cc(NCc4cccc(N5CCC(n6cc(-c7cnc8ccccc8n7)cn6)CC5)c4)ccc3C2=O)C(=O)N1 (stereo not drawn) ?
7.00 to 8.00

Quick one: pIC50 of CN1CCN(c2ccc(-c3cn([C@H]4C[C@H](CNc5ccc6c(c5)C(=O)N(C5CCC(=O)NC5=O)C6=O)C4)nc3C3CC3)nc2)CC1 (stereo partly drawn) ?
< 6.00

* * *

Listing: IC50 of selected molecules
- System: MV4;11 cells
- measurementProtocol: Cell viability assay (CellTiter-Glo) in MV4;11 cells, alone or with gilteritinib
- Assay type: cell-based
- experimentalSetup: Homo sapiens, MV4-11, 72 h, MV4;11 cells, compound with gilteritinib 10 nM, three days, CellTiter-Glo; read-out: MV4; 11 IC50 gilteritinib

Quick one: IC50 of O=C1CCC(N2C(=O)c3ccc(NC[C@H]4C[C@H](n5nc(C6CC6)c6ccncc65)C4)cc3C2=O)C(=O)N1 (some centres unmarked) ?
> 1000 nM

Quick one: IC50 of CN1CCN(c2cccc(-c3cnn([C@H]4C[C@H](CCCNc5ccc6c(c5)C(=O)N(C5CCC(=O)NC5=O)C6=O)C4)c3)n2)CC1 (some centres unmarked) ?
100 to 1000 nM

Quick one: IC50 of Cc1ccccc1-c1cnn(CCCCCCNc2ccc3c(c2)C(=O)N(C2CCC(=O)NC2=O)C3=O)c1 (centres unmarked) ?
10 to 100 nM

Quick one: IC50 of O=C1CCC(N2C(=O)c3ccc(NCCC4CC(n5cc(-c6cnc7ccccc7n6)cn5)C4)cc3C2=O)C(=O)N1 (centres unmarked) ?
100 to 1000 nM

* * *

- Test system: MOLM-13 cells
- measurementProtocol: Cell viability assay (CellTiter-Glo) in MOLM-13 cells, alone or with gilteritinib
- Assay type: cell-based
- experimentalSetup: Homo sapiens, MOLM-13, 72 h, MOLM-13 cells, with gilteritinib 20 nM, three days, CellTiter-Glo; read-out: MOLM-13 IC50 gilteritinib
pIC50: −log10 of the molar value.
endpoint: pIC50

Consider the reported pIC50 for these compounds:
1. CN1CCC(Nc2ccc(-c3cn([C@H]4C[C@H](CNc5ccc6c(c5)C(=O)N(C5CCC(=O)NC5=O)C6=O)C4)nc3C3CC3)nc2)CC1 (stereo partly drawn) [GS-303]; < 6.00
2. O=C1CCC(N2C(=O)c3ccc(NCCC[C@H]4C[C@H](n5cc(-c6cnc7ccc(OC8CC8)cc7n6)cn5)C4)cc3C2=O)C(=O)N1 (stereo partly drawn) [GS-202]; > 8.00
3. O=C1CCC(N2C(=O)c3ccc(C#CCCCCn4cc(-c5cnc6ccccc6n5)cn4)cc3C2=O)C(=O)N1 (stereo not drawn) [GS-369]; < 6.00
4. O=C1CCC(N2C(=O)c3ccc(NCCC[C@H]4C[C@@H](n5cc(-c6cnc7ccccc7n6)cn5)C4)cc3C2=O)C(=O)N1 (stereo partly drawn) [GS-177]; 7.00 to 8.00
5. CNc1ccnc(-c2cn([C@H]3C[C@H](CNc4ccc5c(c4)C(=O)N(C4CCC(=O)NC4=O)C5=O)C3)nc2C2CC2)c1 (stereo partly drawn) [GS-306]; < 6.00

Quick one: pIC50 of O=C1CCC(N2Cc3c(NC4CCCN(Cc5cccc(N6CCC(n7cc(-c8cnc9ccccc9n8)cn7)CC6)c5)C4)cccc3C2=O)C(=O)N1 (stereo not drawn) [GS-133] ?
< 6.00

Quick one: pIC50 of O=C1CCC(N2C(=O)c3ccc(NC[C@H]4C[C@H](n5cc(-c6ccc(NC7CCNCC7)cn6)c(C6CC6)n5)C4)cc3C2=O)C(=O)N1 (stereo partly drawn) [GS-302] ?
< 6.00

Quick one: pIC50 of Cc1nn([C@H]2C[C@H](CNc3ccc4c(c3)C(=O)N(C3CCC(=O)NC3=O)C4=O)C2)cc1-c1cnc2ccccc2n1 (stereo partly drawn) [GS-200] ?
7.00 to 8.00

Quick one: pIC50 of O=C1CCC(N2C(=O)c3ccc(N4CC(CCCCn5cc(-c6cnc7ccccc7n6)cn5)C4)cc3C2=O)C(=O)N1 (stereo not drawn) [GS-367] ?
< 6.00

Quick one: pIC50 of O=C1CCC(N2C(=O)c3ccc(NC(=O)COCCC(=O)N4CCC(n5cc(-c6cnc7ccccc7n6)cn5)CC4)cc3C2=O)C(=O)N1 (stereo not drawn) [GS-330] ?
< 6.00

Quick one: pIC50 of O=C1CCC(N2C(=O)c3ccc(NCCCC4CC(n5cc(-c6cnc7ccc(N8CCNCC8)cc7n6)cn5)C4)cc3C2=O)C(=O)N1 (stereo not drawn) [GS-174] ?
> 8.00

Quick one: pIC50 of O=C1CCC(N2C(=O)c3ccc(CNC(=O)NC4CCCC(n5cc(-c6cnc7ccccc7n6)cn5)C4)cc3C2=O)C(=O)N1 (stereo not drawn) [GS-349] ?
7.00 to 8.00

Quick one: pIC50 of O=C1CCC(N2C(=O)c3ccc(NCCNCC4CC4n4cc(-c5cnc6ccccc6n5)cn4)cc3C2=O)C(=O)N1 (stereo not drawn) [GS-118] ?
> 8.00

Quick one: pIC50 of O=C1CCC(N2C(=O)c3ccc(NC[C@H]4C[C@H](n5cc(-c6ncccc6C(F)(F)F)c(C6CC6)n5)C4)cc3C2=O)C(=O)N1 (stereo partly drawn) [GS-277] ?
> 8.00

Quick one: pIC50 of O=C1CCC(N2C(=O)c3ccc(NCCCCCCN4CCC(n5cc(-c6cnc7ccccc7n6)cn5)CC4)cc3C2=O)C(=O)N1 (stereo not drawn) [GS-326] ?
6.00 to 7.00

Quick one: pIC50 of O=C1CCC(N2Cc3c(NC4CCCC(Nc5nccc(N6CCC(n7cc(-c8cnc9ccccc9n8)cn7)CC6)n5)C4)cccc3C2=O)C(=O)N1 (stereo not drawn) [GS-125] ?
< 6.00

Quick one: pIC50 of O=C1CCC(N2C(=O)c3ccc(NCCCc4cccc(N5CCC(n6cc(-c7cnc8ccccc8n7)cn6)CC5)c4)cc3C2=O)C(=O)N1 (stereo not drawn) [GS-368] ?
> 8.00
